system: HCC-2998 colon; assay: NCI tumour cell line growth inhibition, 48 h
endpoint_label: TGI

Task: Looking for the measured TGI of COC1CC(n2cc(F)c(N)nc2=O)OC1CO (stereo not given) , can you help?
Output: > 100 µM

Task: Looking for the measured TGI of COc1cc2c(=O)n(CC3CCCCC3)c3c4cc[nH]c4ncc3c2cc1OC , can you help?
Output: > 50 µM

Task: Looking for the measured TGI of COC(=O)C(C)Oc1ccc(O)cc1 (stereo not given) , can you help?
Output: > 100 µM

Task: Looking for the measured TGI of CC1C(c2ccccc2)NC(c2ccccc2)CC1(N)C#N (stereo not given) , can you help?
Output: > 100 µM

Task: Looking for the measured TGI of OC(CCl)CN1CC[N+]2(CC1)CC[N+]1(CCN(CC(O)CCl)CC1)CC2 (stereo not given) , can you help?
Output: > 50 µM

Task: Looking for the measured TGI of O=C1C(OC(=O)c2ccccc2)=C(c2ccc(O)cc2)C(=O)C(OC(=O)c2ccccc2)=C1c1ccc(O)cc1 , can you help?
Output: > 100 µM

Task: Looking for the measured TGI of CCOc1ccccc1NC(=O)C1=C(C)NC(C)=C(C(=O)Nc2ccccc2OCC)C1c1cccc([N+](=O)[O-])c1 , can you help?
Output: > 100 µM

Task: Looking for the measured TGI of CCC(C)N1CN(c2ccccc2)C2(CCN(CCCC3(c4ccc(F)cc4)OCCO3)CC2)C1=O (stereo not given) , can you help?
Output: 26.9 µM

Task: Looking for the measured TGI of CN(C)C(=S)/N=c1\ss/c(=N\S(=O)(=O)c2ccccc2)n1C , can you help?
Output: > 100 µM

Task: Looking for the measured TGI of O=C1Nc2ccccc2SC1=C(C(=O)c1ccccc1)C(=O)c1ccccc1 , can you help?
Output: 63.8 µM

###

Kindly supply the reported TGI values for the records listed here.
test system: NCI-H522 lung; assay: NCI tumour cell line growth inhibition, 48 h

Task: Looking for the measured TGI of CCN(CCC#N)C(=O)Nc1ccccc1 , can you help?
Output: > 100 µM

Task: Looking for the measured TGI of Cc1ccc(C)c(NC(=O)C(=O)Nn2c(=S)[nH]c3ccccc3c2=O)c1 , can you help?
Output: > 100 µM

Task: Looking for the measured TGI of COC(=O)C#CC(N)=O , can you help?
Output: > 100 µM

Task: Looking for the measured TGI of CCCCCCCCc1cc(O)ccc1O , can you help?
Output: 25.3 µM

Task: Looking for the measured TGI of COc1ccc(/N=N/C(=NNC(=O)c2ccc(C)cc2)c2ccc(N(C)C)cc2)cc1 , can you help?
Output: 97.9 µM

Task: Looking for the measured TGI of COc1ccc2c(c1)C=CC1C2CC[C@]2(C)C(NC(=O)/C=C/c3ccc(O)c(O)c3)CCC12 (some centres not stated) , can you help?
Output: 10.9 µM

Task: Looking for the measured TGI of NC(=S)NS(=O)(=O)c1ccc(Cl)cc1 , can you help?
Output: > 100 µM

Task: Looking for the measured TGI of COC(=O)C(=O)C(C#N)c1c(Cl)cccc1Cl (configuration not stated) , can you help?
Output: > 100 µM

Task: Looking for the measured TGI of CCSc1nc(N)c2cnn(CC)c2n1 , can you help?
Output: > 100 µM

Task: Looking for the measured TGI of CNc1nc(-c2ccc3c(N)n[nH]c3c2)cc(N2C[C@@H](C(=O)NC3CCCCC3)CC[C@H]2C)n1 , can you help?
Output: 18.3 µM

Task: Looking for the measured TGI of NC1=Nc2ccccc2Sc2ccccc21 , can you help?
Output: > 100 µM

Task: Looking for the measured TGI of COc1cc(CCc2ccncc2)cc(OC)c1OC , can you help?
Output: > 100 µM

###

system: MDA-MB-231 breast; assay: NCI tumour cell line growth inhibition, 48 h
Kindly supply the reported TGI values for the records listed here.

Task: Looking for the measured TGI of CC(=O)/C(=C/N1CCN(C(=O)c2ccco2)C1=S)C(=O)c1ccccc1 , can you help?
Output: 19.8 µM

Task: Looking for the measured TGI of O=C1C(OC(=O)c2ccccc2)=C(c2ccc(O)cc2)C(=O)C(OC(=O)c2ccccc2)=C1c1ccc(O)cc1 , can you help?
Output: > 100 µM

Task: Looking for the measured TGI of CC(C)OP(=O)(OC(C)C)/C(C#N)=C/c1c[nH]c2ccccc12 , can you help?
Output: > 100 µM

Task: Looking for the measured TGI of CCOc1ccccc1N=Cc1c2ccccc2cc2ccccc12 , can you help?
Output: 67.4 µM

Task: Looking for the measured TGI of CCN(CC)CCNc1ccc([N+](=O)[O-])c2nc3ccc(OC)cc3c(N)c12 , can you help?
Output: 3.25 µM

Task: Looking for the measured TGI of COc1ccc(/C=C2/CSC/C(=C/c3ccc(OC)c(OC)c3)C2=O)cc1OC , can you help?
Output: 8.18 µM

Task: Looking for the measured TGI of CCOC(=O)Cc1cc(=O)[nH]c(-n2[nH]c(C)c(CCO)c2=O)n1 , can you help?
Output: > 100 µM

Task: Looking for the measured TGI of COc1ccc(C2NC(N)=C(C#N)C3=C2C(C)CCC3)cc1OC (stereo unspecified) , can you help?
Output: > 100 µM

Task: Looking for the measured TGI of CCOC(=O)C1CCCN1C(=O)c1ccccc1Cl (stereo unspecified) , can you help?
Output: > 100 µM

Task: Looking for the measured TGI of O=C1/C(=C/c2ccc(O)cc2)Oc2ccccc21 , can you help?
Output: > 100 µM

Task: Looking for the measured TGI of CC(=O)OC1=C(CC(C)(C)C)C(=O)c2ccccc2C1=O , can you help?
Output: > 100 µM

Task: Looking for the measured TGI of CCC(C)N1CN(c2ccccc2)C2(CCN(CCCC3(c4ccc(F)cc4)OCCO3)CC2)C1=O (stereo unspecified) , can you help?
Output: 26.2 µM

Task: Looking for the measured TGI of C=C1C(=O)OC2(C)CCC1CC1OC1(C)CCC=C(C)CCC2O (stereo unspecified) , can you help?
Output: > 100 µM

Task: Looking for the measured TGI of N/C(CC(=O)NOC(=O)c1ccccc1)=N/OC(=O)c1ccccc1 , can you help?
Output: > 100 µM

Task: Looking for the measured TGI of O=C1c2cc3ncsc3cc2C(=O)c2c(O)ccc(O)c21 , can you help?
Output: > 100 µM

Task: Looking for the measured TGI of Cc1cc(S(=O)(=O)Nc2n[nH]c(Nc3ccccc3)n2)c(SSc2cc(Cl)c(C)cc2S(=O)(=O)Nc2n[nH]c(Nc3ccccc3)n2)cc1Cl , can you help?
Output: > 100 µM

Task: Looking for the measured TGI of Cc1ccsc1/C=N/Nc1cc(C)c2ccccc2n1 , can you help?
Output: 12.5 µM

Task: Looking for the measured TGI of COc1ccc(/C=C/C(=O)c2ccc(Nc3nc(Nc4ccc(F)cc4)nc(Nc4ccc(F)cc4)n3)cc2)cc1 , can you help?
Output: > 100 µM

Task: Looking for the measured TGI of CC1/C(=N/O)CC(c2ccccc2)N(N=O)C1c1ccccc1 (stereo unspecified) , can you help?
Output: > 100 µM

Task: Looking for the measured TGI of COc1cccc(N(CN2C(=O)CCC2OC)C(C)=O)c1 (stereo unspecified) , can you help?
Output: > 100 µM

Task: Looking for the measured TGI of COc1cc2nc(-c3cccs3)nc(N3C(c4cc(OC)c(OC)c(OC)c4)=NNC(=O)c4ccccc43)c2cc1OC , can you help?
Output: 40.6 µM

###

tested on: COLO 205 colon; experiment: NCI tumour cell line growth inhibition, 48 h
endpoint_label: log10(TGI) (log10 of the value in µM)
In our notation, the value equals log10 of TGI in µM.

Task: Looking for the measured log10(TGI) of CSc1c(C)n([O-])c2cc(Cl)c(Cl)cc2[n+]1=O , can you help?
Output: 1.62

Task: Looking for the measured log10(TGI) of COC(=O)Nc1nc2ccc(C(=O)c3cccs3)cc2[nH]1 , can you help?
Output: 0.32

Task: Looking for the measured log10(TGI) of CCCC(=O)OC(OC(=O)CCC)c1ccc([N+](=O)[O-])o1 , can you help?
Output: 1.74

Task: Looking for the measured log10(TGI) of CCN(CC)CCNc1ccc([N+](=O)[O-])c2nc3ccc(OC)cc3c(N)c12 , can you help?
Output: 0.22

Task: Looking for the measured log10(TGI) of CC(=O)/C(=C/N1CCN(C(=O)c2ccco2)C1=S)C(=O)c1ccccc1 , can you help?
Output: 1.65

Task: Looking for the measured log10(TGI) of C=C1CC(O)C2C(=C)C(=O)OC2C2C(C)C(=O)CC12 (stereo not given) , can you help?
Output: 1.64

Task: Looking for the measured log10(TGI) of Cn1cc(-c2csc(-c3cn(C(=O)OC(C)(C)C)c4ccccc34)n2)c2cccnc21 , can you help?
Output: 1.16

Task: Looking for the measured log10(TGI) of O=S(=O)(Nc1ccc(Cl)c(Cl)c1)c1ccc(-c2cnc(C3CC3)o2)cc1 , can you help?
Output: 0.53

Task: Looking for the measured log10(TGI) of O=[N+]([O-])c1ccc2nc(-c3ccc(Cl)cc3)[nH]c2c1 , can you help?
Output: 1.49

Task: Looking for the measured log10(TGI) of CCN1CCC(O)(/C=C/c2ccccc2)C(C(=O)/C=C/c2ccccc2)C1 (stereo not given) , can you help?
Output: 0.54

These measurements were taken from PubChem BioAssay (NCI).
